# TARGET_DESC: Cytochrome P450 2C9 (Homo sapiens) (UniProt P11712)
# Sequence (P11712 whole entry, looked up): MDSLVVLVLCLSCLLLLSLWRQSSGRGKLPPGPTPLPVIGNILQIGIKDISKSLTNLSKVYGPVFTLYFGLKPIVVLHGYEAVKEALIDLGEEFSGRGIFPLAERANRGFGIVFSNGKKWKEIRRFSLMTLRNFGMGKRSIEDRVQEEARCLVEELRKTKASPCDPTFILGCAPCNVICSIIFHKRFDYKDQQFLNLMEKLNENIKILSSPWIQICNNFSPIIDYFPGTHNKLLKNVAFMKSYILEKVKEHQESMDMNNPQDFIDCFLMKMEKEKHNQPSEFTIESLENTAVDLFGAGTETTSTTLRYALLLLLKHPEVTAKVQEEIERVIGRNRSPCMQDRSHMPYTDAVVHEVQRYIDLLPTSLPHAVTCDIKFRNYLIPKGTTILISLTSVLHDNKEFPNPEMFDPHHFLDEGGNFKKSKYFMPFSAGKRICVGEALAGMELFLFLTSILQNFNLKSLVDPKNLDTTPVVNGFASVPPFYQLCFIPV
# ASSAY_DETAILS: qHTS Assay for Inhibitors and Substrates of Cytochrome P450 2C9 (AID 883); also: nearly all actives have a fitted effect of over 60% in size
# CONDITIONS: recombinant CYP2C9, luciferin-H luminescence, 60 min; series mostly up to 11.4 µM
Records with an inconclusive call do not appear. Calls of active or inactive are those of the source. Calls follow the shape of the dose curve; as a rule, active = well fitted inhibition curve with a large enough effect; inconclusive = small, poorly fitted or top-dose-only effect; inactive = no such curve, though single readings can be large or run the other way.
Output constraint: value belongs to yes (1) = active, no (0) = inactive

Prompt: // return assay outcome for CCCCSCc1nc2nc(Cl)c(Cl)nc2[nH]1
Response: yes (1)

Prompt: Please let me know the test result on file for S=C1N[C@H](c2ccccc2)N[C@H](c2ccccc2)S1 .
Response: yes (1)

Prompt: Could you please tell me the result logged for C[C@@]12CCC(=O)C=C1CC[C@H]1[C@H]3CC[C@](O)(C(=O)CO)[C@]3(C)CC[C@@H]12 in this assay?
Response: no (0)

Prompt: Could you please tell me the result logged for COc1ccc([C@@H](Nc2ccccn2)c2cc(C(C)(C)C)cc(C(C)(C)C)c2O)cc1 in this assay?
Response: yes (1)

Prompt: Would you mind telling me which call this test gave N#CC(C#N)=NNc1ccc2cn[nH]c2c1 ?
Response: yes (1)

Prompt: State the result this test recorded for O=C(O)c1c(Cl)c(Cl)c(Cl)c(Cl)c1C(=O)Nc1ccc2cn[nH]c2c1 .
Response: yes (1)

Prompt: # fetch the recorded call for CCN1/C(=C\C(C)=O)Sc2ccc(OC)cc21 here
Response: no (0)

Prompt: Recorded call for N#Cc1c(NC(=O)C(F)(F)F)sc2c3c(=O)c4ccccc4c(=O)c=3oc3ccccc3c12 ?
Response: yes (1)

Prompt: Query: recorded result category for Clc1ccc(CSCCc2ccncc2)cc1Cl in this test
Response: yes (1)

Prompt: So what was the verdict on Nc1ccc(N(S(=O)(=O)c2ccccc2)S(=O)(=O)c2ccccc2)c(Cl)c1 in this test?
Response: yes (1)

Prompt: For O=C1CNCCCN2CCN(CCCNCC(=O)Nc3ccc(cc3)S(=O)(=O)c3ccc(cc3)NC(=O)CNCCCN3CCN(CCCNCC(=O)Nc4ccc(cc4)S(=O)(=O)c4ccc(cc4)N1)CC3)CC2 , what call appears in the results of this test?
Response: no (0)

Prompt: What did this assay record as the result for N#CCCn1c(=O)c(CCc2ccccc2)nc2cnc(Oc3ccccc3)nc21 ?
Response: yes (1)

Prompt: How did this test come out for O=C(O)c1cc(C(=O)C(=O)c2cc(C(=O)O)c(O)c3ccccc23)c2ccccc2c1O ?
Response: yes (1)

Prompt: // return assay outcome for FC(F)(F)c1cccc(-c2nc3nc(Cl)c(Cl)nc3[nH]2)c1
Response: yes (1)

Prompt: # fetch the recorded call for Cc1cc(OCc2nc(N)nc(N)c2-c2ccc(Cl)c(Cl)c2)ccc1[N+](=O)[O-] here
Response: yes (1)

Prompt: What outcome does the record of this test show for Cc1c(Cl)cccc1NC(=O)C[C@H]1Sc2ccccc2NC1=O ?
Response: no (0)

Prompt: Call for entry O=C(O)c1cccc(CN2CCCCC2)c1 :
Response: no (0)

Prompt: State the result this test recorded for NCCSc1nc2ccccc2s1 .
Response: yes (1)

Prompt: // param item: Nc1ncnc2c1ncn2[C@@H]1CCCO1 ; yields the recorded call
Response: no (0)

Prompt: Test call for this compound, please: Nc1ccn([C@H]2CC[C@H](CO)O2)c(=O)n1
Response: no (0)

Prompt: Assay result, entry Nc1[nH]c(=S)[nH]c(=O)c1N=Nc1c(Br)cc(S(N)(=O)=O)cc1Br — outcome?
Response: no (0)

Prompt: Called result for O=[N+]([O-])c1ccc(Nc2nc3ccccc3s2)cc1
Response: yes (1)

Recorded values, source PubChem BioAssay (NCATS).
